- Subject of test: β-secretase (BACE) (Homo sapiens)
- Construct: purchased Panvera
- Sequence (P56817 46-501): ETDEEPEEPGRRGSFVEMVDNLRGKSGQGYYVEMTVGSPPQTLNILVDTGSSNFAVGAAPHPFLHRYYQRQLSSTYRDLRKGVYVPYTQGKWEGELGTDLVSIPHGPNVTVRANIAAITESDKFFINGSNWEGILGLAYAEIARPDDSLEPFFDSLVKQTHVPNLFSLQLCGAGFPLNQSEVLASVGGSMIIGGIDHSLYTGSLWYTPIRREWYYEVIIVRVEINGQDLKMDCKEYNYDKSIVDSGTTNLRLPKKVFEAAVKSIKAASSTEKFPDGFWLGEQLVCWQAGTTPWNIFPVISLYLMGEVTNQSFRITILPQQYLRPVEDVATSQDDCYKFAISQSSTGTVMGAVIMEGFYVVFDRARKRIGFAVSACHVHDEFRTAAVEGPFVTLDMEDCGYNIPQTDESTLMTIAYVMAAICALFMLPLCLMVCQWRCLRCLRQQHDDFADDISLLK
- Experiment notes: BACE FS1 % Inhibition Assay
- Assay type: biochemical
- Experimental context: 0.3 μM compound; FS1 substrate
Endpoint label: % Inhibition (FS)

// solved cases for % Inhibition (FS) follow
COc1ccccc1-c1ccc2c(c1)CN([C@@H](CCC(=O)N(C)Cc1csc(-c3ccccc3)n1)C1CCCCC1)C(N)=N2 [Compound 716] : <30%
CC(C)CCC(=O)NCCN1Cc2cc(-c3ccc4ccccc4c3)ccc2N=C1N [Compound 668] : <30%

# context switch: different compound, same % Inhibition (FS)
Query string: Which % Inhibition (FS) value belongs to NC1=Nc2ccc(-c3ccccc3Cl)cc2CN1CCNC(=O)C1CCC(C(F)(F)F)CC1 (stereo not drawn) [Compound 690] ?
Result string: <30%
